Molecular target: KRas^G12S (Homo sapiens, UniProt P01116, G12S)
Construct: Biotinylated KRas (corresponding to amino acids 1-169, produced at Accelegan Inc.); biotin (biotinylated); purchased Accelegan Inc
Sequence (P01116 1-169 isoform P01116-2 G12S): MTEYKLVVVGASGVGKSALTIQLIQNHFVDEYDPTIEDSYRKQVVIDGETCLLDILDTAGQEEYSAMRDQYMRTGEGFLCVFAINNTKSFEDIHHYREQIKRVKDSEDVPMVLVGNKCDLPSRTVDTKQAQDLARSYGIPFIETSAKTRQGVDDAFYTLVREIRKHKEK
Assay: KRas binding assay (TR-FRET tracer displacement), KRas G12S
Settings: single point, 10 nM compound, TR-FRET
READOUT: inhibition at 0.01 µM (%)

CHEM_SMILES	MEASURED_NUMBER
CCc1c(F)ccc2cc(O)cc(-c3ncc4c(N5CCC[C@@](C)(O)C5)nc(OC[C@@]56CCCN5[C@H](COC(=O)N5CCCCC5)CC6)nc4c3F)c12	90
CCNC(=O)OC[C@@H]1CC[C@]2(COc3nc(N4CCC[C@@](C)(O)C4)c4cnc(-c5cc(O)cc6ccc(F)c(CC)c56)c(F)c4n3)CCCN12	92
CCc1c(F)ccc2cc(O)cc(-c3ncc4c(N5CCCn6nncc6C5)nc(OC[C@@]56CCCN5C[C@H](F)C6)nc4c3F)c12	81

---

Biological target: KRas^G12R (Homo sapiens, UniProt P01116, G12R)
Construct: Biotinylated KRas (corresponding to amino acids 1-169, produced at Accelegan Inc.); biotin (biotinylated); purchased Accelegan Inc
Sequence (P01116 1-169 isoform P01116-2 G12R): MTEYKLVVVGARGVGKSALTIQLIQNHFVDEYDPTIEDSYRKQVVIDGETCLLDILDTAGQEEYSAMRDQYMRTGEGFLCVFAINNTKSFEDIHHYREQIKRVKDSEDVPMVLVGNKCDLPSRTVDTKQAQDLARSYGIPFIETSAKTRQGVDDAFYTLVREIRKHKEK
Assay: KRas binding assay (TR-FRET tracer displacement), KRas G12R
READOUT: IC50 (nM)

COMPOUND	READOUT	MEASURED_NUMBER
CCc1c(F)ccc2cc(O)cc(-c3ncc4c(N5CCOCC(P(C)(C)=O)C5)nc(OC[C@@]56CCCN5C[C@H](F)C6)nc4c3F)c12 (stereo partly drawn)	IC50	37
C[C@@]1(O)CCCN(c2nc(OCC34CCCN3CCC4)nc3c(F)c(-c4ccc(F)c5sc(N)nc45)ncc23)C1	IC50	3960
Cc1ccc2c(-c3ncc4c(N5C[C@@H]6C[C@H](C5)[C@H](O)C6)nc(OC[C@@]56CCCN5C[C@H](F)C6)nc4c3F)cc(O)cc2c1	IC50	68

a: CCc1c(F)ccc2cc(O)cc(-c3ncc4c(N5CCC6(CC5)OCCC6O)nc(OC[C@@]56CCCN5C[C@H](F)C6)nc4c3F)c12 (stereo partly drawn)
b: CCc1c(F)ccc2cc(O)cc(-c3ncc4c(N5CCCn6nc(S(=O)(=O)N(C)C)cc6C5)nc(OC[C@@]56CCCN5C[C@H](F)C6)nc4c3F)c12
API: POST /compare with a and b ; response names the item with higher IC50. # reply format: chosen label a
(a: 886 nM, b: 6 nM)

---

Target: KRas^G12R (Homo sapiens, UniProt P01116, G12R)
Construct: Biotinylated KRas (corresponding to amino acids 1-169, produced at Accelegan Inc.); biotin (biotinylated); purchased Accelegan Inc
Assay: KRas binding assay (TR-FRET tracer displacement), KRas G12R
READOUT: IC50 (nM)

COMPOUND	SYSTEM_UNDER_TEST	UNITS	IC50
O[C@@H]1CCCN(c2nc(OCC34CCCN3CCC4)nc3c(F)c(-c4cccc5cccc(Cl)c45)ncc23)C1 [Example 902]	KRas^G12R (Homo sapiens, UniProt P01116, G12R)	nM	876

A: Cc1cc2[nH]c(=O)[nH]c2c(-c2ncc3c(N4CCC[C@@](C)(O)C4)nc(OCC45CCCN4CCC5)nc3c2F)c1C [Example 733]
B: CCc1c(F)ccc2cc(O)cc(-c3ncc4c(N5CCC[C@]6(CC[S@+]([O-])C6)C5)nc(OC[C@@]56CCCN5C[C@H](F)C6)nc4c3F)c12 (single isomer, unassigned) [Example 625]
Returns the identifier with the smallest measured IC50 among A and B . Please reply using the label of the selected record. B
(B: 17 nM, A: 2670 nM)

Origin of the recorded values: patent US20260015350A1
